Just for reference, paper PMC8769072 is where these values come from.

- system.tested: TSG101 1-145, Q99816
- Sequence (Q99816 1-145): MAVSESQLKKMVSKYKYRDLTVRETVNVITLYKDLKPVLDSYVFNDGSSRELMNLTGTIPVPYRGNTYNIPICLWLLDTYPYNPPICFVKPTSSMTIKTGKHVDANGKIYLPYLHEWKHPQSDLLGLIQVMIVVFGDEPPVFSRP
measurement.label: selected by phage display

Worked cases, answers included:
APSAPPAPPAPPESTV [ATOH8, Q96SQ7]: confidence 3 (active)
MARPDPSAPPSLLLLL [FZD5, Q13467]: confidence 2 (active)
EEQAGTVASAPLGHSD [LRRFIP1, Q32MZ4]: confidence 4 (active)
DSTVHTSATAPTYIAN [MGAM2, Q2M2H8]: confidence 3 (active)
PTPTAPLLPPQPATPL [EP300, Q09472]: confidence 2 (active)

Request: Query: selected by phage display; subject: SQPSAPDFVQRGFDSF [UTRN, P46939]
Result: confidence 2 (active)

Request: Record: KPSAPPAPELNNSLHP [KMT2D, O14686]
Result: confidence 3 (active)

Request: Continue with PTAPIFLQGLSDLKVM [MYLK, Q15746]
Result: confidence 3 (active)
